B1: library; a variant is named by its letters at N, in order (parent)
chain: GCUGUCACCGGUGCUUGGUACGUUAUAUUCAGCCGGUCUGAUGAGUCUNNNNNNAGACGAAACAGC

Variants of: B1
assay: FACS-Seq fitted mean relative fluorescence mCherry/BFP with ligand (log10 relative fluorescence); HEK293T overexpressing SLC46A1; ligand concentration (+) FACS-Seq: 6 mM; higher = higher reporter protein expression
condition.info: with (6R,S)-folinic acid; ligand present: yes
readout: FACS-Seq fitted mean (log10)
Please respond with just the number, no unit label.

Solved entries (count: 3):
GCUGUCACCGGUGCUUGGUACGUUAUAUUCAGCCGGUCUGAUGAGUCUAAAAUAAGACGAAACAGC [AAAAUA] :: 0.47
GCUGUCACCGGUGCUUGGUACGUUAUAUUCAGCCGGUCUGAUGAGUCUUGUAUCAGACGAAACAGC [UGUAUC] :: -0.247
GCUGUCACCGGUGCUUGGUACGUUAUAUUCAGCCGGUCUGAUGAGUCUUUUGGGAGACGAAACAGC [UUUGGG] :: 0.73

Qu. Form field: reported FACS-Seq fitted mean (log10) of GCUGUCACCGGUGCUUGGUACGUUAUAUUCAGCCGGUCUGAUGAGUCUAUGAGUAGACGAAACAGC [AUGAGU]
Ans. 0.639

Qu. // lookup FACS-Seq fitted mean (log10) for GCUGUCACCGGUGCUUGGUACGUUAUAUUCAGCCGGUCUGAUGAGUCUUGAAACAGACGAAACAGC [UGAAAC]
Ans. 0.578

Qu. Query: FACS-Seq fitted mean (log10); subject: GCUGUCACCGGUGCUUGGUACGUUAUAUUCAGCCGGUCUGAUGAGUCUUUUACUAGACGAAACAGC [UUUACU]
Ans. -0.0776

Qu. Entry under review: GCUGUCACCGGUGCUUGGUACGUUAUAUUCAGCCGGUCUGAUGAGUCUGUUGUAAGACGAAACAGC [GUUGUA] . Reported FACS-Seq fitted mean (log10)?
Ans. 0.415

Qu. Any idea what FACS-Seq fitted mean (log10) was measured for GCUGUCACCGGUGCUUGGUACGUUAUAUUCAGCCGGUCUGAUGAGUCUUACAUGAGACGAAACAGC [UACAUG] ?
Ans. 0.236

Qu. Consider the variant shown here: GCUGUCACCGGUGCUUGGUACGUUAUAUUCAGCCGGUCUGAUGAGUCUUACGACAGACGAAACAGC [UACGAC] What is its recorded FACS-Seq fitted mean (log10)?
Ans. -0.283

Qu. May I ask what FACS-Seq fitted mean (log10) has been recorded for GCUGUCACCGGUGCUUGGUACGUUAUAUUCAGCCGGUCUGAUGAGUCUUCCGUGAGACGAAACAGC [UCCGUG] ?
Ans. 0.562

Qu. # input variant: GCUGUCACCGGUGCUUGGUACGUUAUAUUCAGCCGGUCUGAUGAGUCUGAAAACAGACGAAACAGC [GAAAAC] ; wanted: its FACS-Seq fitted mean (log10)
Ans. 0.078

Qu. Fill in: FACS-Seq fitted mean (log10) of GCUGUCACCGGUGCUUGGUACGUUAUAUUCAGCCGGUCUGAUGAGUCUUUAGGAAGACGAAACAGC [UUAGGA] is ___
Ans. 0.677

Qu. What does the data say about its FACS-Seq fitted mean (log10)? Entry: GCUGUCACCGGUGCUUGGUACGUUAUAUUCAGCCGGUCUGAUGAGUCUUACGUGAGACGAAACAGC [UACGUG]
Ans. 0.518

Qu. Dear colleague, I am looking for the recorded FACS-Seq fitted mean (log10) of the following variant: GCUGUCACCGGUGCUUGGUACGUUAUAUUCAGCCGGUCUGAUGAGUCUUUUCUGAGACGAAACAGC [UUUCUG]
Ans. 0.197

Qu. GET /values?readout=FACS-Seq fitted mean (log10)&item= GCUGUCACCGGUGCUUGGUACGUUAUAUUCAGCCGGUCUGAUGAGUCUUCUGGGAGACGAAACAGC [UCUGGG]
Ans. 0.524

Qu. Would you kindly share the measured FACS-Seq fitted mean (log10) for GCUGUCACCGGUGCUUGGUACGUUAUAUUCAGCCGGUCUGAUGAGUCUUCGGAGAGACGAAACAGC [UCGGAG] ?
Ans. 0.837

Qu. Record request: FACS-Seq fitted mean (log10) value, item GCUGUCACCGGUGCUUGGUACGUUAUAUUCAGCCGGUCUGAUGAGUCUUCAAGAAGACGAAACAGC [UCAAGA]
Ans. 0.305

Qu. Quick one: FACS-Seq fitted mean (log10) of GCUGUCACCGGUGCUUGGUACGUUAUAUUCAGCCGGUCUGAUGAGUCUUUACCCAGACGAAACAGC [UUACCC] ?
Ans. 0.263

Qu. For GCUGUCACCGGUGCUUGGUACGUUAUAUUCAGCCGGUCUGAUGAGUCUCGGCUCAGACGAAACAGC [CGGCUC] , what is its reported FACS-Seq fitted mean (log10)?
Ans. 0.269

Qu. Which FACS-Seq fitted mean (log10) value is on record for GCUGUCACCGGUGCUUGGUACGUUAUAUUCAGCCGGUCUGAUGAGUCUCCAAAAAGACGAAACAGC [CCAAAA] ?
Ans. 0.496

Qu. GET /values?readout=FACS-Seq fitted mean (log10)&item= GCUGUCACCGGUGCUUGGUACGUUAUAUUCAGCCGGUCUGAUGAGUCUGUGGGCAGACGAAACAGC [GUGGGC]
Ans. 0.738

Qu. What value of FACS-Seq fitted mean (log10) has been reported for the following variant? GCUGUCACCGGUGCUUGGUACGUUAUAUUCAGCCGGUCUGAUGAGUCUUCGUCGAGACGAAACAGC [UCGUCG]
Ans. 0.455

Qu. # get_value(readout='FACS-Seq fitted mean (log10)', item= GCUGUCACCGGUGCUUGGUACGUUAUAUUCAGCCGGUCUGAUGAGUCUGAGCCGAGACGAAACAGC [GAGCCG] )
Ans. 0.419

Qu. Suppose we examine the variant GCUGUCACCGGUGCUUGGUACGUUAUAUUCAGCCGGUCUGAUGAGUCUUAUUAAAGACGAAACAGC [UAUUAA] ; what FACS-Seq fitted mean (log10) value has been reported?
Ans. -0.811

Qu. I am curious: what FACS-Seq fitted mean (log10) value has been reported for GCUGUCACCGGUGCUUGGUACGUUAUAUUCAGCCGGUCUGAUGAGUCUGCAUGAAGACGAAACAGC [GCAUGA] ?
Ans. 0.168
